- measurement.target: UCHL1, P09936
- Sequence (P09936 whole entry, looked up, the tested form may be a part): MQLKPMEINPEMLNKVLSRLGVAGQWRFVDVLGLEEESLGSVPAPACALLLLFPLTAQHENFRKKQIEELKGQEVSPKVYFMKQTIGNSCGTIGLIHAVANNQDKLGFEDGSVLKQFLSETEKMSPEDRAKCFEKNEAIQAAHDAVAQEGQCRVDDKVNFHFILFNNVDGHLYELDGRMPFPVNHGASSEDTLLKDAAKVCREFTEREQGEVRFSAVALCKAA
- procedure.details: median log2 fold change of GCK-ALFA target abundance (FLAG IP / Myc IP barcode read proportion) (log2 ratio); each designed protein is fused to an ALFA-tag nanobody in HEK293 cells to bring the named protein to FLAG-tagged glucokinase (GCK); Myc marks an untargeted standard; higher = target protein stabilised (more abundant)
- condition.label: target protein: 3xFLAG-MCP-GCK-ALFA reporter; HEK293 landing pad (RPLP)
Dear colleague, classification is by median log2 fold change, with ranges listed here: bin 0 = under -0.07, bin 1 = from -0.07 up to 0.2, bin 2 = 0.2 and over

binder: uchl1_143_7494 (protein) GPVVEPVVVIELRIERTDTPEEIRAKIRAAVEEAVATGKPTVIEITVPADANMRLTVSTSARRVAREAAKEHPDKIKDLRIYARDEETGKRQLIAEVIKE
discrete.label: bin 2
--
binder: uchl1_2_7524 (protein) KTVFVGALVTLEAEDKETGKVYRYRRNLIGTESAIEALAKEVKELVLNFKEAVGLPVKATVHIVASREEVLKKAVEEFEKMAKELAKEGIEVEITSELTK
discrete.label: bin 0
--
binder: uchl1_143_7480 (protein) GAPARPVVTRTLRFTEEDTPEEIRARITAAIRALVATGQDGVLLLTVPPNPNMRVMVSTVARRALREVAQETRAPGVTLTVEARDEETGKVDVLATADLK
discrete.label: bin 0
--
binder: uchl1_143_7478 (protein) GAPEPEIPVIRLELDAADSDEEIRKRALEAAKEAAEKGAALEIIITVPPDPNARVRANNIAKRLAREIIKKYGDKIKELRVLLRDEETGREDLIALYEKP
discrete.label: bin 1
--
binder: uchl1_155_7496 (protein) MLRVRVTITGTNADGTTLTRELELEIENPTLEKIQEAAREIAEAVREFALAVDGPVEVRVEVSADRRLHAASFSQALRRALREVAKETGKEITLDVRGVP
discrete.label: bin 1
--
binder: uchl1_155_7501 (protein) MATVTVTATGTAPDGTTHTLTKTFEGITSSVEDLLALREAVLALLVELAKKVKGDVDVVVEVSNADANTRVGIGTAVRRAASEAGKQTGLTVSVTIREVA
discrete.label: bin 2
--
binder: uchl1_199_7517 (protein) MSREDDIARYMAGPFLLSNGSPEVVRARARERTRRLIRTRKDLSPEELTEIMVRFVEILAAHRDPETVRAATEGIVEAILEELGDEEAARRVRARAEELL
discrete.label: bin 1
--
binder: uchl1_2_7540 (protein) KSVFVGVLVTLRSYDEATGKEYVSRRTLIGTEDSIEALAEEVAELIRAFYEQTGVPVQADVTIVSSSREVAERLAEALRAREAELRAEGVDVTLTITVRV
discrete.label: bin 0
--
binder: uchl1_143_7490 (protein) SSSDLPVEEVTITVTLDDTPEQIRARLRAAIEAAVAAGRALRINITVPADPNMRLMVNTVARRVAREVARAHADRVRHVEIYATDAATGKTDLLAEVVNP
discrete.label: bin 2
